- Read-out: sulfotransferase 2A1 (SULT2A1), SULT2A1 (gene 6822)
- experiment.notes: LTEA_HepaRG_SULT2A1: Life Technologies and Expression Analysis (LTEA) Assay for sulfotransferase 2A1 (SULT2A1) using HepaRG (AID 2283531)
- condition.label: mRNA level, 48 h; actives raise or lower the signal
Activity calls are given as the source filed them. Rule for the calls: active = hit-call score of the fitted dose curve at least 0.9, where 1 is the maximum; inactive = score below 0.9.
Outcomes: 1.0 = active, 0.0 = inactive

- molecule: "CCCCCCCCCCCCc1ccccc1S(=O)(=O)O"
  label.value: 1.0
- molecule: "CCC(=C(c1ccc(O)cc1)c1ccc(OCCN(C)C)cc1)c1ccccc1"
  label.value: 1.0
- molecule: "CCCCCCCCOC(=O)CCCCCCCCC(=O)OCCCCCCCC"
  label.value: 0.0
- molecule: "O=C(O)Cc1cc(I)c(Oc2cc(I)c(O)c(I)c2)c(I)c1"
  label.value: 1.0
- molecule: "c1ccc2cc3c(ccc4ccccc43)cc2c1"
  label.value: 1.0
- molecule: "CCCCCCCC(=O)O"
  label.value: 0.0
- molecule: "CCOC(=O)CC(O)(CC(=O)OCC)C(=O)OCC"
  label.value: 0.0
- molecule: "O=C(OCCOCCOC(=O)c1ccccc1)c1ccccc1"
  label.value: 0.0
- molecule: "Cc1cc(CCN2CCN(c3nsc4ccccc34)CC2)cc2c1NC(=O)CC2(C)C"
  label.value: 1.0
- molecule: "ClC1=C(Cl)C(Cl)(Cl)C(Cl)=C1Cl"
  label.value: 0.0
- molecule: "Cc1cc(C)c(O)c(C)c1"
  label.value: 0.0
- molecule: "COCC(C)O (centres undefined)"
  label.value: 0.0
- molecule: "CCc1ccc(CCOc2ccc(CC3SC(=O)NC3=O)cc2)nc1 (centres undefined)"
  label.value: 1.0
- molecule: "c1ccc2c(c1)Cc1ccccc1-2"
  label.value: 0.0
- molecule: "CC(C)(C)c1cc(C(C)(C)C)c(O)c(C(C)(C)C)c1"
  label.value: 0.0
- molecule: "CCCCCCCCCCCCCCCS(=O)(=O)Oc1ccccc1"
  label.value: 0.0
- molecule: "O=C(O)c1ccccc1C(c1ccc(O)cc1)c1ccc(O)cc1"
  label.value: 0.0
- molecule: "CCCCCCCCCCCCN1CCCC1=O"
  label.value: 0.0
- molecule: "NC(=O)N(O)[C@@H]1C=C[C@H](Oc2cccc(Oc3ccc(F)cc3)c2)C1"
  label.value: 1.0

---

- Read-out: Peroxisomal acyl-coenzyme A oxidase 1 (ACOX1) gene, ACOX1 (gene 51)
- experiment.notes: LTEA_HepaRG_ACOX1: Life Technologies and Expression Analysis (LTEA) Assay for Peroxisomal acyl-coenzyme A oxidase 1 (ACOX1) gene using HepaRG (AID 2283467)
- condition.label: mRNA level, 48 h; actives raise or lower the signal
The source made the active and inactive calls. How the source made its calls: active means hit-call score of the fitted dose curve at least 0.9, where 1 is the maximum; inactive means score below 0.9.
Classes used: y = active, n = inactive

- compound: "CN1CCN(c2ccccc2/C=C2\\SCCN(c3ccc(Cl)c(Cl)c3)C2=O)CC1"
  label.value: "n"
- compound: "CC(=O)NC1(c2cccc(F)c2)CCN(CC[C@@]2(c3ccc(Cl)c(Cl)c3)CN(c3ccccc3)C(=O)CO2)CC1"
  label.value: "n"
- compound: "CC(C)CCCCCCOC(=O)CCCCC(=O)OCCCCCCC(C)C"
  label.value: "n"
- compound: "COCC(C)O (stereo not given)"
  label.value: "n"
- compound: "Cc1cc(CCN2CCN(c3nsc4ccccc34)CC2)cc2c1NC(=O)CC2(C)C"
  label.value: "y"

These data points were gathered from PubChem BioAssay (EPA / NIEHS).
